Assay: Induction of assembly of GTP-tubulin into microtubules assessed as critical concentration
readout-kind: Activity

molecule="CC(=O)O[C@H]1C(=O)[C@]2(C)[C@@H](OC(=O)[C@H](C)NC(=O)c3ccc(-c4c5cc(F)c(=O)cc-5oc5cc(O)c(F)cc45)c(C(=O)O)c3)C[C@H]3OC[C@@]3(OC(C)=O)[C@H]2[C@H](OC(=O)c2ccccc2)[C@]2(O)C[C@H](OC(=O)[C@H](O)[C@@H](NC(=O)c3ccccc3)c3ccccc3)C(C)=C1C2(C)C [FLUTAX 2]" measured="3.22 µM"
molecule="CC(=O)O[C@@]12CO[C@@H]1C[C@H](O)[C@@]1(C)C(=O)[C@H](O)C3=C(C)[C@@H](OC(=O)[C@H](O)[C@@H](NC(=O)OC(C)(C)C)c4ccccc4)C[C@@](O)([C@@H](OC(=O)c4ccccc4)[C@H]21)C3(C)C.O.O.O [DOCETAXEL]" measured="2.5 µM"
molecule=COc1cccc(C(=O)O[C@H]2[C@@H]3[C@]4(OC(C)=O)CO[C@@H]4C[C@H](OC(=O)[C@H](C)NC(=O)c4ccc(-c5c6ccc(=O)cc-6oc6cc(O)ccc56)c(C(=O)O)c4)[C@@]3(C)C(=O)[C@H](OC(C)=O)C3=C(C)[C@@H](OC(=O)[C@H](O)[C@@H](NC(=O)c4ccccc4)c4ccccc4)C[C@]2(O)C3(C)C)c1 measured="2.26 µM"
molecule=COc1cccc(C(=O)O[C@H]2[C@@H]3[C@]4(OC(C)=O)CO[C@@H]4C[C@H](OC(=O)[C@H](C)NC(=O)c4ccc(-c5c6cc(F)c(=O)cc-6oc6cc(O)c(F)cc56)c(C(=O)O)c4)[C@@]3(C)C(=O)[C@H](OC(C)=O)C3=C(C)[C@@H](OC(=O)[C@H](O)[C@@H](NC(=O)c4ccccc4)c4ccccc4)C[C@]2(O)C3(C)C)c1 measured="2.17 µM"
molecule=C/C=C(\C)C(=O)N[C@@H](c1ccccc1)[C@@H](O)C(=O)O[C@H]1C[C@@]2(O)[C@@H](OC(=O)c3cccc(N=[N+]=[N-])c3)[C@@H]3[C@]4(OC(C)=O)CO[C@@H]4C[C@H](OC(=O)[C@H](C)NC(=O)c4ccc(-c5c6ccc(=O)cc-6oc6cc(O)ccc56)c(C(=O)O)c4)[C@@]3(C)C(=O)[C@H](OC(C)=O)C(=C1C)C2(C)C measured="2.45 µM"
molecule="CC(=O)O[C@H]1C(=O)[C@@]2(C)[C@H]([C@H](OC(=O)c3ccccc3)[C@]3(O)C[C@H](OC(=O)[C@H](O)[C@@H](NC(=O)c4ccccc4)c4ccccc4)C(C)=C1C3(C)C)[C@]1(OC(C)=O)CO[C@@H]1C[C@@H]2O [PACLITAXEL]" measured="4.23 µM"
molecule="CC(=O)O[C@H]1C(=O)[C@]2(C)[C@@H](OC(=O)[C@H](C)NC(=O)c3ccc(-c4c5ccc(=O)cc-5oc5cc(O)ccc45)c(C(=O)O)c3)C[C@H]3OC[C@@]3(OC(C)=O)[C@H]2[C@H](OC(=O)c2ccccc2)[C@]2(O)C[C@H](OC(=O)[C@H](O)[C@@H](NC(=O)c3ccccc3)c3ccccc3)C(C)=C1C2(C)C [FLUTAX 1]" measured="3.84 µM"
